Target of assay: WDR5 (Homo sapiens)
Construct: WDR5-His Tag (A23, residues 24-334) is expressed and purified in our lab; made in house
Method description: Time Resolved-Fluorescence Energy Transfer (TR-FRET) competition assay, displacement of 10mer-Thr-FAM probe from His-tagged WDR5
Format: binding
Condition description: WDR5-His tag 2 nM, 10mer-Thr-FAM 150 nM, 60 minutes at room temperature; read-out: Ki for Exemplified Compounds for Inhibition of WDR5 by TR-FRET assay
pKi: −log10 of the molar value.
For each entry below, report its pKi value.

// query Report value: pKi, system: WDR5 (Homo sapiens), molecule: `CCOc1cc2c(N3CCc4c(cc(Cn5ccnc5)cc4-c4cn(C)nc4C(F)(F)F)C3=O)ncnc2cc1OC`
// result > 10.70

// query Report value: pKi, system: WDR5 (Homo sapiens), molecule: `COc1cc2nc(C)nc(N3CCc4c(cc(Cn5ccnc5)cc4-c4ccc(F)cc4C)C3=O)c2cc1OC`
// result 10.70

// query Report value: pKi, system: WDR5 (Homo sapiens), molecule: `CCc1cc2c(N3CCc4c(cc(Cn5ccnc5)cc4-c4cn(C)nc4C(F)(F)F)C3=O)ccnc2c(C(=O)NC)n1`
// result > 10.70

// query Report value: pKi, system: WDR5 (Homo sapiens), molecule: `CCc1cc2c(N3CCc4c(cc(Cn5ccnc5)cc4-c4cn(C)nc4C(F)(F)F)C3=O)ccnc2c(-c2ccncc2)n1`
// result > 10.70

// query Report value: pKi, system: WDR5 (Homo sapiens), molecule: `COc1cc2nncc(N3CCc4c(cc(Cn5ccnc5)cc4-c4cn(C)nc4C(F)(F)F)C3=O)c2cc1OC`
// result > 10.70

// query Report value: pKi, system: WDR5 (Homo sapiens), molecule: `COc1cc2nc(N3CCOCC3)nc(N3CCc4c(cc(Cn5ccnc5)cc4-c4cn(C)nc4C(F)(F)F)C3=O)c2cc1OC`
// result > 10.70

// query Report value: pKi, system: WDR5 (Homo sapiens), molecule: `CCc1cc2c(N3CCc4c(cc(Cn5ccnc5)cc4-c4cn(C)nc4C(F)(F)F)C3=O)ccnc2c(=O)[nH]1`
// result > 10.70

// query Report value: pKi, system: WDR5 (Homo sapiens), molecule: `COc1ccc2nccc(N3CCc4c(cc(Cn5ccnc5)cc4-c4cn(C)nc4C(F)(F)F)C3=O)c2n1`
// result 10.52

// query Report value: pKi, system: WDR5 (Homo sapiens), molecule: `COc1cc2c(N3CCc4c(cc(Cn5ccnc5)cc4-c4cn(C)nc4C(F)(F)F)C3=O)ccnc2c(OC)n1`
// result > 10.70

// query Report value: pKi, system: WDR5 (Homo sapiens), molecule: `COc1cc(OC)c2ncnc(N3CCc4c(cc(Cn5ccnc5)cc4-c4cn(C)nc4C(F)(F)F)C3=O)c2c1`
// result 10.66

// query Report value: pKi, system: WDR5 (Homo sapiens), molecule: `CCc1cc(C(N)=O)c2nccc(N3CCc4c(cc(Cn5ccnc5C)cc4-c4cn(C)nc4C(F)(F)F)C3=O)c2c1`
// result > 10.70

// query Report value: pKi, system: WDR5 (Homo sapiens), molecule: `CCc1cc2c(N3CCc4c(cc(Cn5ccnc5)cc4-c4cn(C)nc4C(F)(F)F)C3=O)ccnc2c(OCCOC)n1`
// result > 10.70

// query Report value: pKi, system: WDR5 (Homo sapiens), molecule: `COc1cc2c(N3CCc4c(cc(Cn5ccnc5)cc4-c4cn(C)nc4C(F)(F)F)C3=O)nc(C)nc2cc1F`
// result > 10.70

// query Report value: pKi, system: WDR5 (Homo sapiens), molecule: `CCc1cc2c(N3CCc4c(cc(Cn5ccnc5)cc4-n4nc(C)cc4C(F)(F)F)C3=O)ccnc2c(OC)n1`
// result 10.62

// query Report value: pKi, system: WDR5 (Homo sapiens), molecule: `CCc1cc2c(N3CCc4c(cc(Cn5ccnc5)cc4-c4cn(C)nc4C(F)(F)F)C3=O)ccnc2c(N2CCCC2)n1`
// result > 10.70

// query Report value: pKi, system: WDR5 (Homo sapiens), molecule: `CCOc1cc2ncnc(N3CCc4c(cc(Cn5ccnc5)cc4-c4cn(C)nc4C(F)(F)F)C3=O)c2cc1OC`
// result 10.49

// query Report value: pKi, system: WDR5 (Homo sapiens), molecule: `CCc1nc(N2CCc3c(cc(Cn4ccnc4)cc3-c3cn(C)nc3C(F)(F)F)C2=O)c2cc(OC)c(OC)cc2n1`
// result > 10.70

// query Report value: pKi, system: WDR5 (Homo sapiens), molecule: `COc1cc2c(N3CCc4c(cc(Cn5ccnc5)cc4-c4cn(C)nc4C(F)(F)F)C3=O)ncnc2cc1F`
// result > 10.70

// query Report value: pKi, system: WDR5 (Homo sapiens), molecule: `CCc1cc2c(N3CCc4c(cc(Cn5ccnc5)cc4-c4cn(C)nc4C(F)(F)F)C3=O)ccnc2c(N2CCN(C)CC2)n1`
// result > 10.70

// query Report value: pKi, system: WDR5 (Homo sapiens), molecule: `CCc1cnc2c(c1)[C@@H](N1CCc3c(cc(Cn4ccnc4)cc3-c3cn(C)nc3C(F)(F)F)C1=O)CCO2`
// result > 10.70

// query Report value: pKi, system: WDR5 (Homo sapiens), molecule: `COc1cc2nc(C)nc(N3CCc4c(cc(Cn5ccnc5)cc4-c4cn(C)nc4C(F)(F)F)C3=O)c2cc1OC`
// result > 10.70

// query Report value: pKi, system: WDR5 (Homo sapiens), molecule: `CNc1nc(N2CCc3c(cc(Cn4ccnc4)cc3-c3cn(C)nc3C(F)(F)F)C2=O)c2cc(OC)c(OC)cc2n1`
// result 10.64

// query Report value: pKi, system: WDR5 (Homo sapiens), molecule: `CCN(C)c1nc(N2CCc3c(cc(Cn4ccnc4)cc3-c3cn(C)nc3C(F)(F)F)C2=O)c2cc(OC)c(OC)cc2n1`
// result > 10.70

// query Report value: pKi, system: WDR5 (Homo sapiens), molecule: `CCc1cc2c(N3CCc4c(cc(Cn5ccnc5)cc4-c4cn(C)nc4C(F)(F)F)C3=O)ccnc2c(CC)n1`
// result > 10.70

Where these numbers come from: patent US20240262822A1
